Quick reference for inhibition among some molecules
Test System: Endonuclease 8-like 2 (Homo sapiens);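 note: fluorescence at 594 nm reports NEIL2 cutting and release of a quenched double-stranded DNA oligo substrate, reduced signal read as inhibition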
Sequence (whole entry): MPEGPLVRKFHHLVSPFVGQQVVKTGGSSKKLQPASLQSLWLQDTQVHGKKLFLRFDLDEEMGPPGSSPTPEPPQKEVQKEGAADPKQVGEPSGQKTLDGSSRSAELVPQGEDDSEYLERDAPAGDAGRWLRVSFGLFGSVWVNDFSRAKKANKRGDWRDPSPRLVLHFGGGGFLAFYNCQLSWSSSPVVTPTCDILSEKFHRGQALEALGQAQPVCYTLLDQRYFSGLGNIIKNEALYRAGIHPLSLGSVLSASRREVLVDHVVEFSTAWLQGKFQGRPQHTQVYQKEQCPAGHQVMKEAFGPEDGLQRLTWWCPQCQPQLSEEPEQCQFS
Assay Context: Compound Concentration 10.0 uM, Hit No
Description: Inhibition of NEIL2 by quantifying inhibition of NEIL2-mediated cleavage and dissociation of quenched duplex DNA oligonucleotides, measured as fluorescence at 594 nm.
Reported Property: inhibition (%)

Molecule | Unit Descriptor | Recorded Result
O=C(O)c1cccc(/C=C2/C[C@@H]3[C@@H](/C=C/[C@H](O)C4CCCCC4)[C@H](O)C[C@@H]3O2)c1 | % | -5.7
N#Cc1c[nH]c2c(C(=O)N3CCN(CCc4ccc(F)cc4)CC3)cccc12 | % | -4.73
CNC(=O)[C@H]1O[C@@H](n2cnc3c(NCc4cccc(I)c4)ncnc32)[C@H](O)[C@@H]1O | % | -8.76
c1ccc2oc(-c3csc(C4CCN(Cc5nc6ncccc6[nH]5)CC4)n3)cc2c1 | % | 1.3
Cc1cc(C(=O)N2CCN(C3CN(C(=O)c4ccc(-c5ccccc5)cc4)C3)CC2)no1 | % | -4.32
CCCC(=O)C1(c2ccccc2)CCN(C(=O)[C@@H](Cc2ccc(OC)cc2)NC(=O)[C@@H](N)Cc2cncn2C)CC1 | % | -1.37
Cc1c(CC(=O)O)c2cccnc2n1Cc1ccc(S(C)(=O)=O)cc1C(F)(F)F | % | 7.75
CNC(=O)c1cc(C(=O)NC2CC2)cn(Cc2ccccc2)c1=O | % | -1.25
CC1CCN(CC[C@H]2CCCN2S(=O)(=O)c2cccc(O)c2)CC1 | % | -5.22
C[C@@H](NC(=O)Nc1cc2[nH]ncc2c(CO)n1)c1ccccc1 | % | -3.37
CC(C)NCC(O)COc1ccc(CCOCC2CC2)cc1 (stereo not given) | % | -0.983
CC(C)(O)CNc1ncc(-c2ccnc(Nc3ccnc(Cl)c3)n2)c(CC2CC2)n1 | % | -9.73
CC(C)c1ccc(CC(=O)N[C@H](C)c2ccc(OCC(F)(F)F)cn2)cc1 | % | -3.66
CC(C)(C(=O)O)c1ccc(C(O)CCCN2CCC(C(O)(c3ccccc3)c3ccccc3)CC2)cc1 (stereo not given) | % | 8
N#CN1CC[C@@H](C(=O)Nc2nc3c(s2)CN(C(=O)CN=[N+]=[N-])CC3)C1 | % | -7.63
CCCN(CCc1cccs1)[C@H]1CCc2c(O)cccc2C1 | % | -1.88
CCOC(=O)c1ncn2c1CN(C)C(=O)c1cc(F)ccc1-2 | % | -1.48
CC1(C)N=C(C2CCCCC2)c2ccc(C#N)cc2N(c2ccc(NCCNC3CCOCC3)cc2)C1=O | % | -3.41
NC[C@H](O)c1ccc(O)c(O)c1 | % | -0.983
CCOC(=O)c1ccc(C#Cc2ccc3c(c2)C(C)(C)CCS3)nc1 | % | 2.06
